Measured values drawn from paper PMC8809517 for this set.

Form field: Kd (one value per entry).
Molecular target: T1, GFP-9S library array, motif 4 ND N98D (synthetic construct, N98D)
T1 chain: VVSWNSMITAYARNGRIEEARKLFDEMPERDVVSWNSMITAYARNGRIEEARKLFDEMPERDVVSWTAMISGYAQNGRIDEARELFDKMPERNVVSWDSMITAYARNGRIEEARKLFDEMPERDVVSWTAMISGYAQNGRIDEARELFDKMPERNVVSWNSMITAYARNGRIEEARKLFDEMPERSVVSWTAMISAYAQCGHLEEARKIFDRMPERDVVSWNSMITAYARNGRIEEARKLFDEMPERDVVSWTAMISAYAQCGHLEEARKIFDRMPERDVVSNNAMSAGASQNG
Assay: high-throughput RNA pulldown from lysate on Ni-NTA beads; HRP: 50 mM Tris pH 8, 150 mM NaCl, 1 mM beta-mercaptoethanol, 50 ug/ml BSA, 3 ug/ml yeast RNA, 0.5% heparin; ITC and FP: Tris pH 8, 200 mM KCl, 5% glycerol; MST: 50 mM Tris pH 8, 200 mM NaCl, 1 mM DTT, BSA, heparin, 0.05% Tween 20
Settings: tags: N-terminal His-eGFP; label: 5' IRDye 800CW
Please don't drop the unit; write it after the number.

Recorded Kd (binder AUUAAACGUGA (ssRNA) [IR-rpoA-A] ): 531 nM

# ---- query binder ----
Recorded Kd (binder AUUAUACGUGA (ssRNA) [IR-rpoA-U] ): 315 nM
